Data provenance: the supplement of paper PMC9694430

# Tested on: LOC_OS01G02750-cb003;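 note: purified Escherichia coli-expressed rice kinase domain construct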
# experimentDescription: thermal shift delta Tm vs DMSO control; higher = stronger stabilization (binding)
# assayConditions: 12.5 µM; protein concentration 2 µM
Where a name gives a salt, the structure may show the parent alone.
Outcome: Y for thermal shift delta Tm of at least 0.8 °C; N for anything lower.

- compound: "Clc1ccc(Nc2nnc(Cc3ccncc3)c3ccccc23)cc1 [Vatalanib (PTK787) 2HCl]"
  classAssignment: "N"
- compound: "CC#CC(=O)N1CC[C@@H](n2c(=O)n(-c3ccc(Oc4ccccc4)cc3)c3c(N)ncnc32)C1 [ONO-4059 (GS-4059) hydrochloride]"
  classAssignment: "N"
- compound: "COc1cc2ncnc(Oc3ccc(CC(=O)Nc4cnn(C(C)C)c4)cc3)c2cc1OC"
  classAssignment: "N"
- compound: "N#C/C(=C\\c1ccc(O)c(O)c1)C(=O)NCc1ccccc1"
  classAssignment: "Y"
- compound: "CC(C)S(=O)(=O)c1ccc2nccc(Nc3ccc4scnc4c3)c2c1"
  classAssignment: "Y"
- compound: "CS(=O)(=O)CCNCc1ccc(-c2ccc3ncnc(Nc4ccc(OCc5cccc(F)c5)c(Cl)c4)c3c2)o1"
  classAssignment: "N"
- compound: "Cn1cc(-c2ccc(F)c(C(F)(F)F)c2)nc1C1CCN(c2ncnc3[nH]ncc23)CC1"
  classAssignment: "N"
- compound: "O=C(Nc1ccc(OC(F)(F)F)cc1)c1sccc1NCc1ccnc2ccccc12"
  classAssignment: "Y"
- compound: "CC(C)(C)c1cc(NC(=O)Nc2ccc(-c3cn4c(n3)sc3cc(OCCN5CCOCC5)ccc34)cc2)no1"
  classAssignment: "Y"
- compound: "COc1cccc(-n2c(=O)[nH]c3cc(Cl)n(-c4ccc(-c5cccc(OC)c5O)cc4)c3c2=O)c1"
  classAssignment: "Y"
- compound: "O=C(O)c1cc(O)c2c(c1)[C@@H]([C@H]1c3cc(C(=O)O)cc(O)c3C(=O)c3c(O[C@@H]4O[C@H](CO)[C@@H](O)[C@H](O)[C@H]4O)cccc31)c1cccc(O[C@@H]3O[C@H](CO)[C@@H](O)[C@H](O)[C@H]3O)c1C2=O [Sennoside B]"
  classAssignment: "Y"
- compound: "COCCOc1ccc2c(c1)ncn2-c1ccc2cccc(N3CCC(N)CC3)c2n1"
  classAssignment: "Y"
- compound: "COCCOc1cnc2ccn([C@H](C)c3nnc4c(F)cc(-c5cnn(C)c5)cn34)c(=O)c2c1"
  classAssignment: "N"
- compound: "CO[C@H]1C[C@@H]2CC[C@@H](C)[C@@](O)(O2)C(=O)C(=O)N2CCCC[C@H]2C(=O)O[C@H]([C@H](C)C[C@@H]2CC[C@H](n3cnnn3)[C@H](OC)C2)CC(=O)[C@H](C)/C=C(\\C)[C@@H](O)[C@@H](OC)C(=O)[C@H](C)C[C@H](C)/C=C/C=C/C=C/1C"
  classAssignment: "N"
- compound: "OC1CCC(Nc2ncc3nc(Nc4c(F)cc(F)cc4F)n([C@H]4CCOC4)c3n2)CC1 (stereo not given in full)"
  classAssignment: "N"
